Origin of measurements: patent US20180112001A1

# Target of assay: T1, soluble monomeric human MUC16, truncated format encompassing the last five SEA domains of Mucin-16 (human)
# T1 construct: also called hMUC16.mmh; MUC16 "nub"
# T1 chain: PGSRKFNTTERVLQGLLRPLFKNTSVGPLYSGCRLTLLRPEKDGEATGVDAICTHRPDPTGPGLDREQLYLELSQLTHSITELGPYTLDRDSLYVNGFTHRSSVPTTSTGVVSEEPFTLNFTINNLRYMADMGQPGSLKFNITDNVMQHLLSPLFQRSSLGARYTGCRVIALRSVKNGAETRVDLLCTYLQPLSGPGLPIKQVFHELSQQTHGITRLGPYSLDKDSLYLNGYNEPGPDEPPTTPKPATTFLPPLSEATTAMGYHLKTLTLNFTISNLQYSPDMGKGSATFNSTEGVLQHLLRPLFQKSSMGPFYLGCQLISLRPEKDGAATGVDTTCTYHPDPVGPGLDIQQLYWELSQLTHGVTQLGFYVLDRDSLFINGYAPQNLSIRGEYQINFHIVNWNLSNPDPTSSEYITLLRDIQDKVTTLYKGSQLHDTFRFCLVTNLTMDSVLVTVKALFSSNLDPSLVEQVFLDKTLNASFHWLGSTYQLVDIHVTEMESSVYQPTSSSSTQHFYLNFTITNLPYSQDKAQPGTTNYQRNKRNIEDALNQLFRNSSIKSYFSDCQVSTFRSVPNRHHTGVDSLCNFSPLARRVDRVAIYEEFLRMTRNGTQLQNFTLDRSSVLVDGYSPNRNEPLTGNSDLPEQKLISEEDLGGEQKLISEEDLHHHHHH
# Assay info: SPR Biacore, antibody captured, soluble monomeric hMUC16.mmh injected, 25C
Measured quantity: t1/2 (min)
Number in min, nothing else.

Q: Item H1H8808P (antibody, human IgG1, V domains shown, Human IgG1 (H1H)) VH: QVQLVESGGGVVQPGRSLRLSCVASGFTFSNYGIHWVRQAPGKGLEWVAVISDDGSFKFYADSVKGRFTISRDNSKNTLYLQMNSLRVEDSAVYHCAKWQHNWNDGGFDYWGQGTLVTVSS VL: EIVLTQSPDTLSLSPGERATLSCRASQSLSSNYLAWYRQKPGQAPRLLIYGISSRATGIPDRFSGSGSGTDFTLTISRLEPEDFAVYYCQQYGSSPWTFGQGTKVEIK has what recorded t1/2?
Result: 54

Q: Item H1H8770P (antibody, human IgG1, V domains shown, Human IgG1 (H1H)) VH: QVQLVESGGGVVQPGRSLRLSCAASGFTFSDHGMHWVRQAPGKGLEWVAVISYHGSNKHYADSVKGRFTISRDNSKNALYLQMNSLRPEDTAMYYCAKDGYDFWNGYSLFDYWGQGTLVTVSS VL: DIQMTQSPSSLSASVGDRVTITCRASQSISNYLNWYQQKPGKAPKLLIYTASNLLSGVPSRFSGSGSGTDFTLTISSLQPEDFATYYCQQSYSTPPITFGQGTKLEIK has what recorded t1/2?
Result: 38

New cases:
Q: Item H1H8783P (antibody, human IgG1, V domains shown, Human IgG1 (H1H)) VH: QVQLVESGGGVVQPGRSLRLSCAASGFTFSDHAMHWVRQAPGKGLEWVAVISYHGTDKQYGDSVKGRFTISRDNSKNALYLQMNSLRPEDTAMYYCAKDGYDFWNAYSLFDYWGQGTLVTVSS VL: DIQMTQSPSSLSASVGDRVTITCRASQSISNYLNWYQQKPGKAPKLLIYTASSLLSGVPSRFSGSGSGTDFTLTISSLQPEDFATYYCQQSYSTPPITFGQGTRLEIK has what recorded t1/2?
Result: 108
